Overview of reported solubility (mole fraction) across a group of molecules:
# RECORDED_CONDITIONS: in diethyl ether, 299.18 K
I only need the number, thanks.

COc1ccc(P(=O)(c2ccc(OC)cc2)c2ccc(OC)cc2)cc1; 0.00929

Now for another entry.
Output solubility (mole fraction) of COc1ccc(P(c2ccc(OC)cc2)c2ccc(OC)cc2)cc1 0.00889

###

# RECORDED_CONDITIONS: in benzene, 318.26 K
PROPERTY_LABEL: solubility (mole fraction)
Just the number, please, no unit after it.

Quick one: give measured solubility (mole fraction) for O=P1(Oc2ccccc2)OCC2(CO1)COP(=O)(Oc1ccccc1)OC2 (stereo unspecified) 0.00133

###

# RECORDED_CONDITIONS: in chloroform, 323.16 K
PROPERTY_LABEL: solubility (mole fraction)
Please respond with just the number, no unit label.

O=P1(O)OCC2(CO1)COP(=O)(O)OC2 (configuration not stated); 0.00137

Tell us which solubility (mole fraction) value is on record for O=C(O)CCP(=O)(O)c1ccccc1 0.00093

###

# RECORDED_CONDITIONS: in dichloromethane, 308.14 K
PROPERTY_LABEL: solubility (mole fraction)
API doc: respond with a numeric literal and nothing else, no unit.

Input O=C(O)CCP(=O)(O)c1ccccc1 , output reported solubility (mole fraction). 0.00111

###

# RECORDED_CONDITIONS: in 2-butanone, 323.16 K
PROPERTY_LABEL: solubility (mole fraction)
// no unit, no text: just the number

Worked cases, answers included:
COc1ccc(P(c2ccc(OC)cc2)c2ccc(OC)cc2)cc1; 0.0103
O=C(O)CCP(=O)(O)c1ccccc1; 0.00253
COc1ccc(P(=O)(c2ccc(OC)cc2)c2ccc(OC)cc2)cc1; 0.0125
O=P1(O)OCC2(CO1)COP(=O)(O)OC2 (stereo not given); 0.0015

// fetch solubility (mole fraction) given entry O=P(O)(CO)c1ccccc1 0.0029

###

# RECORDED_CONDITIONS: in pyridine, 293.43 K
PROPERTY_LABEL: solubility (mole fraction)
Please respond with just the number, no unit label.

Please look at this compound and report its solubility (mole fraction): O=P1(Oc2ccccc2)OCC2(CO1)COP(=O)(Oc1ccccc1)OC2 (stereo unspecified) 0.00813

###

# RECORDED_CONDITIONS: in acetonitrile, 318.17 K
PROPERTY_LABEL: solubility (mole fraction)
Please give only the number in your answer, with no unit.

Return solubility (mole fraction) for the following compound: O=C(O)CCP(=O)(O)c1ccccc1 0.00053

###

# RECORDED_CONDITIONS: in acetic acid, 308.17 K
PROPERTY_LABEL: solubility (mole fraction)
Keep the answer to the number alone.

Fill in solubility (mole fraction) for record O=P1(O)OCC2(CO1)COP(=O)(O)OC2 (stereo unspecified) 0.00032

###

# RECORDED_CONDITIONS: in 1,4-dioxane, 298.17 K
PROPERTY_LABEL: solubility (mole fraction)
Lab note: jot down the number only; don't add units.

Check the records and state solubility (mole fraction) for O=P1(O)OCC2(CO1)COP(=O)(O)OC2 (stereo unspecified) 0.00028

###

# RECORDED_CONDITIONS: in water, 342.75 K
PROPERTY_LABEL: solubility (mole fraction)
Write the value as a bare number.

For the molecule O=C(O)CCP(=O)(O)c1ccccc1 , give its reported solubility (mole fraction). 0.0339
